KDR (VEGFR2) (Homo sapiens (Human)): reported pIC50 for various compounds.
Sequence (P35968 20-1356): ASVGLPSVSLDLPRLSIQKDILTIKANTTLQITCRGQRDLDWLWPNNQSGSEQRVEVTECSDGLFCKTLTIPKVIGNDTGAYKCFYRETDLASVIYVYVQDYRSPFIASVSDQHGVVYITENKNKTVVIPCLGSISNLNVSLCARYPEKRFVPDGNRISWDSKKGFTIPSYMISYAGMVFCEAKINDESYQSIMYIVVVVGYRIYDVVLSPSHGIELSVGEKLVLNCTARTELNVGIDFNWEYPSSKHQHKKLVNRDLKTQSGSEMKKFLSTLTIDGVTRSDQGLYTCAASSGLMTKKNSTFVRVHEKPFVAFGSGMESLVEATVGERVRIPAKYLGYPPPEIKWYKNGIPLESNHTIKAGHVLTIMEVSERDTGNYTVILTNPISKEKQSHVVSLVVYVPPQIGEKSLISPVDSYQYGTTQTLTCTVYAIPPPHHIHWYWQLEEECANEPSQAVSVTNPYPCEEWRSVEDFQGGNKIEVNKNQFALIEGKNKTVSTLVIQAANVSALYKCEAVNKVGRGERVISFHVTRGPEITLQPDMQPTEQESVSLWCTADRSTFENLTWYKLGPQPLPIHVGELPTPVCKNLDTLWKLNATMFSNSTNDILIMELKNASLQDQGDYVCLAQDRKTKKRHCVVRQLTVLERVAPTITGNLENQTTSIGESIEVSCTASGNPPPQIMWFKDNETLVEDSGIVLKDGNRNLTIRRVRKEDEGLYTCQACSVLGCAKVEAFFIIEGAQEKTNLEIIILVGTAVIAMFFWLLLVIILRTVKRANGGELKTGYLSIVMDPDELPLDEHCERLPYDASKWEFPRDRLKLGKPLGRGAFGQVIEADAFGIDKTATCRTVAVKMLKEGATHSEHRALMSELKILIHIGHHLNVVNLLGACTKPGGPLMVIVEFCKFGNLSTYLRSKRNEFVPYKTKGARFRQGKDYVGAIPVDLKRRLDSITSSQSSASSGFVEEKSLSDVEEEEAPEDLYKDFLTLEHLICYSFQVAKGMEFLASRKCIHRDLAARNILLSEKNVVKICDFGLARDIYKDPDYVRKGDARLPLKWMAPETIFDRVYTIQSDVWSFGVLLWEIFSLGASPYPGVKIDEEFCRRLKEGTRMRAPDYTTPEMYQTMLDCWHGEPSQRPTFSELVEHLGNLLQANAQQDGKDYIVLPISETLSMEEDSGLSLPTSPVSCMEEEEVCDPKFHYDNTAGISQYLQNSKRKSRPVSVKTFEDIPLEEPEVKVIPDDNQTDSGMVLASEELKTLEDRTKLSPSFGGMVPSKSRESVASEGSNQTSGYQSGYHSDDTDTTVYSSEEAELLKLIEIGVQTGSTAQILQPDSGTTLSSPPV
pIC50: −log10 of the molar value.

Past entries and their recorded results:
O=C(Nc1cccc(Oc2ccc3nccnc3c2)c1)Nc1cccc(C(F)(F)F)c1; > 7.00
O=C(Nc1ccc(F)c(Oc2ccc3ncc(N4CCOCC4)nc3c2)c1)Nc1ccc(Cl)c(C(F)(F)F)c1; < 7.00
O=C(Nc1cccc(Oc2ccc3nccnc3c2)c1)c1cccc(C(F)(F)F)c1; < 7.00

We now examine a further compound.
Qu. Return pIC50 measured with KDR (VEGFR2) (Homo sapiens (Human)) given this compound: O=C(Nc1ccc(Oc2ccc3nccnc3c2)cc1)Nc1cccc(C(F)(F)F)c1
Ans. < 7.00
